The reader will find reported inhibition values listed item by item below.
biological target: P2X purinoceptor 1 (Homo sapiens) (UniProt P51575); experiment: Antagonist activity at non-desensitizing human P2X1 receptor ( P2X2/P2X1 chimera) expressed in human 1321N1 cells assessed as inhibition of ATP-induced calcium influx at 10 uM pre-incubated for 30 mins before ATP stimulation by FLIPR assay relative to control; type: cell-based
Answer format: numeric, % implied, no suffix.

QUERY: Data request, read-out inhibition, for "O=C(CNc1cc(C(F)(F)F)cc(C(F)(F)F)c1)c1cc(Cl)ccc1O"
RESULT: 104

----------
Biological target: P2X purinoceptor 3 (Homo sapiens)
Sequence (whole entry): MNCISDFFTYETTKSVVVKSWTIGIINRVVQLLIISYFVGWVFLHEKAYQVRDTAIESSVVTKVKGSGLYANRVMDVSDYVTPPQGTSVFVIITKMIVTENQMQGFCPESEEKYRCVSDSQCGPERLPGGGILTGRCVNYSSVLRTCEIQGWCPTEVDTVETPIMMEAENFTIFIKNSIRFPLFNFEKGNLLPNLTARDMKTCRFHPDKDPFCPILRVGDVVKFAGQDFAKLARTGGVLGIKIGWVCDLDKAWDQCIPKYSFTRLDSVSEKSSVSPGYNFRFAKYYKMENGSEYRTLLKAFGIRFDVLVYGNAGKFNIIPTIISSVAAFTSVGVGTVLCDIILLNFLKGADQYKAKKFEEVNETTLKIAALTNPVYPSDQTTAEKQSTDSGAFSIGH
Assay: Antagonist activity at human P2X3 receptor expressed in human 1321N1 cells assessed as inhibition of ATP-induced cytosolic calcium influx at 10 uM preincubated for 30 mins followed by ATP addition by Fluo-4 AM dye-based fluorescence assay relative to control
Type: cell-based
Recorded inhibition values for a group of compounds are listed next.
Report only the number, with the unit % understood.

INSERT INTO assay_data (compound, measured_on, measure_name, unit_spec, measured_result) VALUES
  ('O=C(Nc1cc(C(F)(F)F)cc(C(F)(F)F)c1)c1ccc(Cl)cc1O', 'P2X purinoceptor 3 (Homo sapiens)', 'inhibition', '%', 2),
  ('O=C(Nc1cc([N+](=O)[O-])cc(C(F)(F)F)c1)c1cc(Cl)ccc1O', 'P2X purinoceptor 3 (Homo sapiens)', 'inhibition', '%', 16),
  ('O=C(Nc1ccc(C(F)(F)F)cc1)c1cc(Cl)ccc1O', 'P2X purinoceptor 3 (Homo sapiens)', 'inhibition', '%', -6),
  ('O=C(Nc1cccc(Cl)c1)c1cc(Cl)ccc1O', 'P2X purinoceptor 3 (Homo sapiens)', 'inhibition', '%', 3),
  ('O=C(Nc1cc(C(F)(F)F)cc(C(F)(F)F)c1)c1cccc(Cl)c1O', 'P2X purinoceptor 3 (Homo sapiens)', 'inhibition', '%', 28);

QUERY: Give recorded inhibition with P2X purinoceptor 3 (Homo sapiens) for the following compound: "O=C(Nc1cc(Cl)cc(Cl)c1)c1cc(Cl)ccc1O"
RESULT: 5

QUERY: Enter reported inhibition observed with P2X purinoceptor 3 (Homo sapiens) for "O=C(Nc1cc(C(F)(F)F)cc(C(F)(F)F)c1)c1ccccc1O"
RESULT: 30

QUERY: I'm curious: which inhibition was measured for "O=C(Nc1cc(C(F)(F)F)cc(C(F)(F)F)c1)c1cccc(F)c1O" tested on P2X purinoceptor 3 (Homo sapiens)?
RESULT: 38

QUERY: Value wanted: inhibition (P2X purinoceptor 3 (Homo sapiens)) of entry O=C(Nc1cc(C(F)(F)F)cc(C(F)(F)F)c1)c1cc(Cl)ccc1O [IMD-0354]
RESULT: 11

QUERY: What reported inhibition corresponds to "O=C(Nc1cccc(C(F)(F)F)c1)c1cc(Cl)ccc1O" on P2X purinoceptor 3 (Homo sapiens)?
RESULT: 4

QUERY: # value lookup — system P2X purinoceptor 3 (Homo sapiens), readout inhibition, item "O=C(Nc1cc(F)cc(F)c1)c1cc(Cl)ccc1O"
RESULT: 2

----------
Quick list: pIC50 per entry.
biological target: P2X purinoceptor 1 (Homo sapiens, UniProt P51575); assay: Antagonist activity at non-desensitizing human P2X1 receptor ( P2X2/P2X1 chimera) expressed in human 1321N1 cells assessed as inhibition of ATP-induced calcium influx pre-incubated for 30 mins before ATP stimulation by FLIPR assay relative to control
Sequence (P51575 whole entry, looked up): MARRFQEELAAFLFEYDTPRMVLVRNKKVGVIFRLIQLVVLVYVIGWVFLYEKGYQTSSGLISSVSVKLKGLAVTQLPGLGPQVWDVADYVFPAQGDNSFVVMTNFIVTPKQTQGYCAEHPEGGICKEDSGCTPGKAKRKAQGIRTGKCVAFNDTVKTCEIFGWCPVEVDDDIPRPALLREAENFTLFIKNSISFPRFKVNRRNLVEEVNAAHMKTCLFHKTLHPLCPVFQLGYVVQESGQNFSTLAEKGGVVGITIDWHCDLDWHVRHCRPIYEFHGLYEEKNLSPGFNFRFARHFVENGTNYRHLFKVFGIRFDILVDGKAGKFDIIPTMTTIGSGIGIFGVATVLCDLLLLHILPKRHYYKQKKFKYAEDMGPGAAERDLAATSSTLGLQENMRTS
Formally, pIC50 is defined as -log10 of the concentration c, with c in mol/L.

Consider the worked cases shown below.
INSERT INTO results (smiles_string, measure_name, measured_result) VALUES
  ('O=C(Nc1cc(Cl)cc(Cl)c1)c1cc(Cl)ccc1O', 'pIC50', 7.53),
  ('Cc1ccc(O)c(C(=O)Nc2cc(C(F)(F)F)cc(C(F)(F)F)c2)c1', 'pIC50', 6.63);

QUERY: Could you tell me which pIC50 is on file for "O=C(Nc1cccc(S(=O)(=O)C(F)(F)F)c1)c1cc(Cl)ccc1O" ?
RESULT: 6.47

QUERY: What does the data say about its pIC50? Entry: "O=C(Nc1cc([N+](=O)[O-])cc([N+](=O)[O-])c1)c1cc(Cl)ccc1O"
RESULT: 5.36

----------
molecular target: UniProtKB P51575; assay: Antagonist activity at non-desensitizing human P2X1 receptor ( P2X2/P2X1 chimera) expressed in human 1321N1 cells assessed as inhibition of ATP-induced calcium influx at 1 uM pre-incubated for 30 mins before ATP stimulation by FLIPR assay relative to control; type: cell-based
MEASURE_NAME: inhibition (%)
Answer in %, number only, no unit symbol.

INSERT INTO results (smiles_string, measure_name, unit_spec, measured_result) VALUES
  ('N#Cc1cccc(NC(=O)c2cc(Cl)ccc2O)c1', 'inhibition', '%', 60);

QUERY: GET /values?readout=inhibition&item= "COc1ccc(Cl)cc1C(=O)Nc1cc(C(F)(F)F)cc(C(F)(F)F)c1"
RESULT: 17

----------
biological target: P2X purinoceptor 1 (Homo sapiens); test: Antagonist activity at non-desensitizing human P2X1 receptor ( P2X2/P2X1 chimera) expressed in human 1321N1 cells assessed as inhibition of ATP-induced calcium influx pre-incubated for 30 mins before ATP stimulation by FLIPR assay relative to control
MEASURE_NAME: log10(IC50) (log10 of the value in nM)
Log10 applied to IC50; unit prior to transform: nM.

Worked cases, answers included:
INSERT INTO assay_data (smiles_string, measured_result) VALUES
  ('COc1cc(NC(=O)c2cc(Cl)ccc2O)cc(OC)c1', 2.96),
  ('O=C(Nc1cccc(Cl)c1)c1cc(Cl)ccc1O', 1.88),
  ('O=C(Nc1cc(C(F)(F)F)cc(C(F)(F)F)c1)c1cccc(F)c1O', 1.85),
  ('O=C(Nc1cc(C(F)(F)F)cc(C(F)(F)F)c1)c1ccc(Cl)cc1O', 1.36),
  ('O=C(Nc1cc(C(F)(F)F)cc(C(F)(F)F)c1)c1ccccc1[N+](=O)[O-]', 3.93);

QUERY: Please report the recorded log10(IC50) for "O=C(Nc1cc(C(F)(F)F)cc(C(F)(F)F)c1)c1cc(Cl)ccc1O" .
RESULT: 1.28

----------
biological target: P2X purinoceptor 4 (Homo sapiens, UniProt Q99571); assay: Antagonist activity at human P2X4 receptor expressed in human 1321N1 cells assessed as inhibition of ATP-induced cytosolic calcium influx preincubated for 30 mins followed by ATP addition by Fluo-4 AM dye-based fluorescence assay
Sequence (Q99571 whole entry): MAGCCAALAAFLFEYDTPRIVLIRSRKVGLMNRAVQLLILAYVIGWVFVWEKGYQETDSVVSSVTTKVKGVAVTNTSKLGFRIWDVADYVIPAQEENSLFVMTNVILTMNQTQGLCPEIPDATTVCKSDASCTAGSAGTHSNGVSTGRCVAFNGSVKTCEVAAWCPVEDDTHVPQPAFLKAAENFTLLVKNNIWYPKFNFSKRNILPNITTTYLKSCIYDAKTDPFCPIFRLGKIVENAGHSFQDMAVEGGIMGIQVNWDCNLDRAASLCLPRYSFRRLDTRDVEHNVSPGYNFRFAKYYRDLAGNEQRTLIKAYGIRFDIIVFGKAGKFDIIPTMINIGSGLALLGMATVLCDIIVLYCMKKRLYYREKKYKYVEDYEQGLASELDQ
MEASURE_NAME: log10(IC50) (log10 of the value in nM)
Scale: decimal log of IC50, IC50 in nM.

QUERY: Reported log10(IC50), molecule "O=C(Nc1cc(C(F)(F)F)cc(C(F)(F)F)c1)c1ccccc1O" : ____
RESULT: 2.19

----------
// reported pIC50 per item
target: P2X purinoceptor 7 (Homo sapiens); test: Antagonist activity at human P2X7 receptor expressed in human 1321N1 cells assessed as inhibition of ATP-induced cytosolic calcium influx preincubated for 30 mins followed by ATP addition by Fluo-4 AM dye-based fluorescence assay
Sequence (Q99572 whole entry): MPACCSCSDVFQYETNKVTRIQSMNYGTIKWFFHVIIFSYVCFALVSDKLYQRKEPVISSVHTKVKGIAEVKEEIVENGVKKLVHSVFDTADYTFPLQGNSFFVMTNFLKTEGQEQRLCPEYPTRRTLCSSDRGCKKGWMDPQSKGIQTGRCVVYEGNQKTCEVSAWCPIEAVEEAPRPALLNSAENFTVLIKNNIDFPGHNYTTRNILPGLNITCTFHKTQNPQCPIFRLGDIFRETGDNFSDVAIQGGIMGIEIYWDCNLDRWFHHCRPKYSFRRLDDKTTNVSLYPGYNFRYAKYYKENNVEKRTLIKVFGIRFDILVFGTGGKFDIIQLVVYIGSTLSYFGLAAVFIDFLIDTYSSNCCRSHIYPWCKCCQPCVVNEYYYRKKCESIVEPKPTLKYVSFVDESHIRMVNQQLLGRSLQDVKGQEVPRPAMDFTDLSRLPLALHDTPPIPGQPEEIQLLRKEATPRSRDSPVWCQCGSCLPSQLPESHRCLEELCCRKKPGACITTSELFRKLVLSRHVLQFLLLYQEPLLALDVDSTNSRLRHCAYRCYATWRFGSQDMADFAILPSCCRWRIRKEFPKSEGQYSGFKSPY
Lab note: report pIC50 as minus log10 of the concentration in molar units, number only.

// below: answered compounds
INSERT INTO assay_data (compound, measured_on, measure_name, measured_result) VALUES
  ('O=C(Nc1cccc(C(F)(F)F)c1)c1cc(Cl)ccc1O', 'P2X purinoceptor 7 (Homo sapiens)', 'pIC50', 5.20),
  ('O=C(Nc1cccc(Cl)c1)c1cc(Cl)ccc1O', 'P2X purinoceptor 7 (Homo sapiens)', 'pIC50', 6.22),
  ('O=C(Nc1cc(C(F)(F)F)cc(C(F)(F)F)c1)c1cccc(Cl)c1O', 'P2X purinoceptor 7 (Homo sapiens)', 'pIC50', 6.75),
  ('O=C(Nc1cc(C(F)(F)F)cc(C(F)(F)F)c1)c1cc(Cl)ccc1O [IMD-0354]', 'P2X purinoceptor 7 (Homo sapiens)', 'pIC50', 6.76),
  ('O=C(Nc1cc(C(F)(F)F)cc(C(F)(F)F)c1)c1ccc2ccccc2c1O', 'P2X purinoceptor 7 (Homo sapiens)', 'pIC50', 6.10);

QUERY: Please report the recorded pIC50 for "O=C(Nc1cc(C(F)(F)F)cc(C(F)(F)F)c1)c1ccccc1O" .
RESULT: 6.50

QUERY: Using the record for "O=C(Nc1cc(C(F)(F)F)cc(C(F)(F)F)c1)c1ccc(Cl)cc1O" , report its pIC50.
RESULT: 6.71

QUERY: Requested read-out: pIC50. Entry: "O=C(Nc1cc(F)cc(F)c1)c1cc(Cl)ccc1O"
RESULT: 6.80

QUERY: So what does the record say about pIC50 for "O=C(Nc1cc(C(F)(F)F)cc(C(F)(F)F)c1)c1cccc(F)c1O" ?
RESULT: 6.07

QUERY: Consider the compound "O=C(Nc1cc(Cl)cc(Cl)c1)c1cc(Cl)ccc1O" and give its measured pIC50.
RESULT: 7.15

QUERY: Value lookup for pIC50; key = "O=C(Nc1cc([N+](=O)[O-])cc(C(F)(F)F)c1)c1cc(Cl)ccc1O"
RESULT: 6.84
